- SYSTEM: PDE2A (580–919) (Homo sapiens, UniProt O00408)
- Sequence (O00408 580-919): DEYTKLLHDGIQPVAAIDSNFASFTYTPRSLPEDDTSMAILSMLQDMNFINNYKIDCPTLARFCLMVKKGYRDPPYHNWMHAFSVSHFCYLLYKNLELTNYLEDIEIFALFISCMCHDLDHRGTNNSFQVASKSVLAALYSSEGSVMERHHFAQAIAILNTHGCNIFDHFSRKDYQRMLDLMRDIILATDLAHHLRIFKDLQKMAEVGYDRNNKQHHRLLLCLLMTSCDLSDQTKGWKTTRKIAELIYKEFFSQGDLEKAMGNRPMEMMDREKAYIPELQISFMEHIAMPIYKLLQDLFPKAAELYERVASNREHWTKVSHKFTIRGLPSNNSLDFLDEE
pIC50: −log10 of the molar value.
REPORTED METRIC: pIC50

Return the recorded pIC50 value; entry: Cc1ccc2c(c1)nc(/C=C/c1cccc3cccnc13)n2-c1cccc(OCCCN2CCN(C)CC2)c1.Cl [Compound 14·3HCl] < 5.00

---

- ASSAY EXPLANATION: Solubility in deionized water
- Assay type: physicochemical
- REPORTED CONDITIONS: pH 7, water
REPORTED METRIC: solubility

Return the recorded solubility value; entry: Cc1ccc2c(c1)nc(/C=C/c1cccc3cccnc13)n2-c1cccc(OCCCN2CCN(C)CC2)c1.Cl [Compound 14·3HCl] 4700 µg/mL

---

- SYSTEM: human ether-à-go-go-related gene (hERG) potassium channel (Homo sapiens, UniProt Q12809)
- Sequence (Q12809 whole entry): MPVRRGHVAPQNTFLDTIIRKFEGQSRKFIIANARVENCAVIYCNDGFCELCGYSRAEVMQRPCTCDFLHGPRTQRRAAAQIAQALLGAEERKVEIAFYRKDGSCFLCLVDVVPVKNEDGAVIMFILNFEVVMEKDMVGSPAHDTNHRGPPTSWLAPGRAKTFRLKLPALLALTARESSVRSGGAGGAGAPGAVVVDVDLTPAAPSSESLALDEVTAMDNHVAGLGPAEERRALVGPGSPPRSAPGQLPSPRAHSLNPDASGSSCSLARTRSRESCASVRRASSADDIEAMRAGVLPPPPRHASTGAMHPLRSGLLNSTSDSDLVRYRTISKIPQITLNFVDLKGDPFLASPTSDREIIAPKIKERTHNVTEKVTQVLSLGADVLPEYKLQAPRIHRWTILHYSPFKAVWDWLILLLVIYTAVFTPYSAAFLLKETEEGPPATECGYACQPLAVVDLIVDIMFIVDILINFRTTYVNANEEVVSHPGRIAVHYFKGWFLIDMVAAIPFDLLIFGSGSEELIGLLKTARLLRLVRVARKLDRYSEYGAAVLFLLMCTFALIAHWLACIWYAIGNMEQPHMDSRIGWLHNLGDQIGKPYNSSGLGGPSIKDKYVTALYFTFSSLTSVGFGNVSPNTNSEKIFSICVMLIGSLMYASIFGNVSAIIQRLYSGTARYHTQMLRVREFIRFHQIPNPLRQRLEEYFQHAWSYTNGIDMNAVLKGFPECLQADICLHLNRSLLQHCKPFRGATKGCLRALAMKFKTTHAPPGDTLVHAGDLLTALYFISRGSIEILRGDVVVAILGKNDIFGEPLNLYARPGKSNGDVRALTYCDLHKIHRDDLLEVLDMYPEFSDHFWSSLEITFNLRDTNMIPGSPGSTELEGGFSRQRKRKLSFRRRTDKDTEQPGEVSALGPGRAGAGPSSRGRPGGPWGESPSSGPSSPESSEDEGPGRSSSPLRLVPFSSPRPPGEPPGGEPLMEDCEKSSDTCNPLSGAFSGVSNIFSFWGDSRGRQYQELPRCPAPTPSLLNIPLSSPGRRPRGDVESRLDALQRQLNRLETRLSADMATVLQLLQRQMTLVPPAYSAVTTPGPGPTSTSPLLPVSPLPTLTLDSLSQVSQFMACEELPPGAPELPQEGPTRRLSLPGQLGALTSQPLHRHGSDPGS
- ASSAY EXPLANATION: cell-based
- REPORTED CONDITIONS: hERG IC50, peak tail current inhibition, 2−3 cells per concentration
REPORTED METRIC: pIC50
Scale for pIC50: -log10 of concentration given in mol/L; no unit attached.

Return the recorded pIC50 value; entry: Cc1ccc2c(c1)nc(/C=C/c1cccc3cccnc13)n2-c1cccc(OCCCN2CCN(C)CC2)c1.Cl [Compound 14·3HCl] 5.35

---

- ASSAY EXPLANATION: Metabolic stability in rat liver microsomes
- Assay type: in vitro ADME
- REPORTED CONDITIONS: rat, pH 7.4
Form field: log10(half-life at 0.1 μmol/L) (one value per entry).
For clarity, the numbers are log10 values of half-life at 0.1 μmol/L expressed in min.

Worked examples follow.
Cc1ccc2c(c1)nc(/C=C/c1cccc3cccnc13)n2-c1cccc(OCCCN2CCOCC2)c1.Cl [13·3HCl]: 1.20
COc1cccc(-n2c(/C=C/c3cccc4cccnc34)nc3cc(C)ccc32)c1: 0.32
Cc1ccc2c(c1)nc(/C=C/c1cccc3cccnc13)n2-c1cccc(S(=O)(=O)N2CCN(C)CC2)c1: 0.18
Cc1ccc2c(c1)nc(/C=C/c1cccc3cccnc13)n2-c1cccc(CN2CCN(C)CC2)c1: 1.04

Now turn to the next molecule.
Return the recorded log10(half-life at 0.1 μmol/L) value; entry: Cc1ccc2c(c1)nc(/C=C/c1cccc3cccnc13)n2-c1cccc(OCCCN2CCN(C)CC2)c1.Cl [Compound 14·3HCl] 1.40

---

- ASSAY EXPLANATION: In vivo pharmacokinetics of 14·3HCl in rats
- Parameters: species or system Sprague–Dawley rats
- REPORTED CONDITIONS: male, Sprague-Dawley, rat, plasma, iv, 2.5 mg/kg
REPORTED METRIC: half-life (h)
Record the value in h, omitting the unit from your answer.

Return the recorded half-life value; entry: Cc1ccc2c(c1)nc(/C=C/c1cccc3cccnc13)n2-c1cccc(OCCCN2CCN(C)CC2)c1.Cl [Compound 14·3HCl] 6.7

---

- SYSTEM: PDE8A1 (480–820) (Homo sapiens, UniProt O60658)
- Sequence (O60658 480-820): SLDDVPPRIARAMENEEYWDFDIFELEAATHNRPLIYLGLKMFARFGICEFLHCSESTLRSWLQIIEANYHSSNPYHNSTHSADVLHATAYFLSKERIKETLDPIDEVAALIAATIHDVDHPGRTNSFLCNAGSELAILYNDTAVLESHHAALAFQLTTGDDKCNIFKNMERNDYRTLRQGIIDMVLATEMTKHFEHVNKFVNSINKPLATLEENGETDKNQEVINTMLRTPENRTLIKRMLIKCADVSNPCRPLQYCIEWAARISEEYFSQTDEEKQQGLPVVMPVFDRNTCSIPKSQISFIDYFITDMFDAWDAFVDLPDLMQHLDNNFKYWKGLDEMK
pIC50: −log10 of the molar value.
REPORTED METRIC: pIC50

Enter pIC50 (test system PDE8A1 (480–820) (Homo sapiens, UniProt O60658)) for Cc1ccc2c(c1)nc(/C=C/c1cccc3cccnc13)n2-c1cccc(OCCCN2CCN(C)CC2)c1.Cl [Compound 14·3HCl] < 5.00
